Origin of the recorded values: paper PMC11195807

- experimental_system: hCA IX (Homo sapiens, UniProt Q16790)
- Construct: made in house
- measurement_description: stopped-flow CO2 hydrase assay, hCA IX
- Assay type: biochemical
- experimental_setup: coumarins; inhibitor-enzyme incubation 6 h; mean ± SEM of three assays
pKi: −log10 of the molar value.
endpoint_name: pKi

1. COc1ccc2cc3[n+](cc2c1OCCCn1cc(COc2ccc4ccc(=O)oc4c2)nn1)CCc1cc2c(cc1-3)OCO2 [Compound 34] : 7.18
2. COc1ccc2cc3[n+](cc2c1OCc1cn(CCCOc2ccc4ccc(=O)oc4c2)nn1)CCc1cc2c(cc1-3)OCO2 [Compound 42] : 7.45
3. COc1ccc2cc3[n+](cc2c1OCCCn1cc(CCCOc2ccc4ccc(=O)oc4c2)nn1)CCc1cc2c(cc1-3)OCO2 [Compound 36] : 7.23
4. COc1ccc2cc3[n+](cc2c1OCc1cn(CCCCOc2ccc4ccc(=O)oc4c2)nn1)CCc1cc2c(cc1-3)OCO2 [Compound 43] : 7.59

====

In this section we review reported Selectivity index (SI) II/XII values for a set of molecules.
- experimental_system: hCA XII (Homo sapiens, UniProt O43570)
- Construct: made in house
- Sequence (O43570 25-354): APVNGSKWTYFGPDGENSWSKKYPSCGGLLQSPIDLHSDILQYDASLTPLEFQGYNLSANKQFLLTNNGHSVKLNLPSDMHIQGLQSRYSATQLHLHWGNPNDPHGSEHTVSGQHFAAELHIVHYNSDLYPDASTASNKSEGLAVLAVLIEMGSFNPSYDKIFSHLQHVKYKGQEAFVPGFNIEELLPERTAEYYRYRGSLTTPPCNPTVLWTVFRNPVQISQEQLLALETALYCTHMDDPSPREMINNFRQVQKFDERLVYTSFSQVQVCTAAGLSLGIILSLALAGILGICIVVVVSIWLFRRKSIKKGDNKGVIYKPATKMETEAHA
- measurement_description: stopped-flow CO2 hydrase assay, hCA XII
- Type: biochemical
- experimental_setup: hCA XII over hCA II
endpoint_name: Selectivity index (SI) II/XII

1. COc1ccc2cc3[n+](cc2c1OCCCCCn1cc(COc2ccc(S(N)(=O)=O)cc2)nn1)CCc1cc2c(cc1-3)OCO2 : 14.2
2. COc1ccc2cc3[n+](cc2c1OCCCn1cc(-c2ccc(S(N)(=O)=O)cc2)nn1)CCc1cc2c(cc1-3)OCO2 : 4.8
3. COc1ccc2cc3[n+](cc2c1OCc1cn(-c2cccc(S(N)(=O)=O)c2)nn1)CCc1cc2c(cc1-3)OCO2 : 3.6
4. COc1ccc2cc3[n+](cc2c1OCCCCCn1cc(-c2ccc(S(N)(=O)=O)cc2)nn1)CCc1cc2c(cc1-3)OCO2 : 0.9
5. COc1ccc2cc3[n+](cc2c1OCCCCn1cc(COc2ccc(S(N)(=O)=O)cc2)nn1)CCc1cc2c(cc1-3)OCO2 : 9.9
6. COc1ccc2cc3[n+](cc2c1OCCn1cc(COc2ccc(S(N)(=O)=O)cc2)nn1)CCc1cc2c(cc1-3)OCO2 : 1.4
7. COc1ccc2cc3[n+](cc2c1OCCCn1cc(COc2ccc(S(N)(=O)=O)cc2)nn1)CCc1cc2c(cc1-3)OCO2 : 2.0

====

- experimental_system: hCA I (Homo sapiens, UniProt P00915)
- Construct: made in house
- Sequence (P00915 whole entry): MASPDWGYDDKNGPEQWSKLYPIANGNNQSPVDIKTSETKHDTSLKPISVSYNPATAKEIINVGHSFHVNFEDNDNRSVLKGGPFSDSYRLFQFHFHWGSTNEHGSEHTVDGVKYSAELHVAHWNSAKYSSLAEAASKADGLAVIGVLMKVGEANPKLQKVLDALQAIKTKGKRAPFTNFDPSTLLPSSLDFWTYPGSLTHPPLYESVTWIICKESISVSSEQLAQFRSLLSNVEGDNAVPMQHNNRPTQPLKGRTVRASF
- measurement_description: stopped-flow CO2 hydrase assay, hCA I
- Assay type: biochemical
- experimental_setup: coumarins; inhibitor-enzyme incubation 6 h
pKi: −log10 of the molar value.
In this section we review reported pKi values for a set of compounds.
endpoint_name: pKi

1. COc1ccc2cc3[n+](cc2c1OCc1cn(CCCOc2ccc4ccc(=O)oc4c2)nn1)CCc1cc2c(cc1-3)OCO2 : < 4.00
2. COc1ccc2cc3[n+](cc2c1OCCCCn1cc(CCOc2ccc4ccc(=O)oc4c2)nn1)CCc1cc2c(cc1-3)OCO2 : < 4.00
3. COc1ccc2cc3[n+](cc2c1OCc1cn(-c2ccc4c(C)cc(=O)oc4c2)nn1)CCc1cc2c(cc1-3)OCO2 : < 4.00
